Entries annotated with measured melting point
Counter-ions that a name gives are not always drawn.

COc1ccc(C2(CN)C3CC4CC(C3)CC2C4)cc1 (stereo not shown) (as salt: hydrochloride) [Example 8]; 234 to 235 °C

Query: I have this molecule here, Cc1cccc(C2(CN)C3CC4CC(C3)CC2C4)c1 (stereo not shown) (as salt: hydrochloride) [Example 2] , and I need its recorded melting point.
Response: 242 to 243 °C

Query: I have this molecule here, CCc1cccc(C2(CN)C3CC4CC(C3)CC2C4)c1 (stereo not shown) (as salt: hydrochloride) [Example 1] , and I need its recorded melting point.
Response: 89 to 90 °C

Query: I have this molecule here, NCC1(c2ccc(C(F)(F)F)cc2)C2CC3CC(C2)CC1C3 (stereo not shown) (as salt: hydrochloride) [Example 9] , and I need its recorded melting point.
Response: 279 to 281 °C

----------
Entries annotated with measured melting point
Structures can show the parent of a compound that is named as a salt.

Here is how some compounds turned out for melting point.
NCC1(c2ccc(F)cc2)C2CC3CC(C2)CC1C3 (stereo not drawn) (as salt: hydrochloride); 262 to 263 °C
NCC1(c2cccs2)C2CC3CC(C2)CC1C3 (stereo not drawn) (as salt: hydrochloride); 255 to 257 °C
NCC1(c2ccc(Cl)cc2)C2CC3CC(C2)CC1C3 (stereo not drawn) (as salt: hydrochloride); > 300 °C
Cc1ccc(C2(CN)C3CC4CC(C3)CC2C4)cc1 (stereo not drawn) (as salt: hydrochloride); 261 to 263 °C

Query: I have this compound here, Cc1ccccc1C1(CN)C2CC3CC(C2)CC1C3 (stereo not drawn) (as salt: hydrochloride) , and I need its recorded melting point.
Response: 270 to 271 °C

Query: I have this compound here, NCC1(c2ccccc2)C2CC3CC(C2)CC1C3 (stereo not drawn) (as salt: hydrochloride) , and I need its recorded melting point.
Response: 253 to 255 °C
